Assay: amyloid nucleation score (Sup35N fusion, yeast selection) (log enrichment); library NNK3; higher = more nucleation; inactive = no reads after selection;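 also: zero at mode of non-aggregating sequences after 7 days selection at 30°C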
measurementName: amyloid nucleation score

# residueString, amyloid nucleation score
records = [
    ("TKVFVLHSYDCTIKTSGFNS", "inactive"),
    ("FFIDQLKEFSHY", "inactive"),
    ("DWCVSSEMSVTNALQATKFA", "inactive"),
    ("RIEYVVPITPM", "inactive"),
]

Next:
Exam item: Given "YDLTFVGWMDYCNLPMVRLI" , respond with its amyloid nucleation score.
Marked response: inactive

###

Assay: amyloid nucleation score (Sup35N fusion, yeast selection) (log enrichment); library NNK3; higher = more nucleation; inactive = no reads after selection
measurementName: amyloid nucleation score

Consider the following illustrative entries.
# substance, amyloid nucleation score
data = [
    ("NSVRYLTWVAFLVCLMAYML", "inactive"),
    ("HIRFWSDNRT", 0.468),
    ("LVVCTSAFIGMTDY", -0.532),
    ("CVWAVGVFFGFMIQRQDEER", "inactive"),
    ("VLGCFVVKGSKFVDLPEFHR", 1.3),
    ("NNDYADLRWGKSVGKASGWG", "inactive"),
]

Exam item: Given "PLRKCAMCSWVSSGEGPTYP" , respond with its amyloid nucleation score.
Marked response: 0.483

Exam item: Given "VATHTSASHLRS" , respond with its amyloid nucleation score.
Marked response: inactive

Exam item: Given "QDYSELRVSKKKVVRVG" , respond with its amyloid nucleation score.
Marked response: inactive

Exam item: Given "IRKSFVEKMLPLPFSLAAIG" , respond with its amyloid nucleation score.
Marked response: 0.234

Exam item: Given "VCAGNTDPWSQELIPYRKC" , respond with its amyloid nucleation score.
Marked response: inactive

Exam item: Given "YRMICPAIV" , respond with its amyloid nucleation score.
Marked response: inactive

Exam item: Given "AVIVVINNQTH" , respond with its amyloid nucleation score.
Marked response: 2.78

Exam item: Given "FSNDFFCLCPS" , respond with its amyloid nucleation score.
Marked response: inactive

###

Assay: amyloid nucleation score (Sup35N fusion, yeast selection) (log enrichment); library NNK3; higher = more nucleation; inactive = no reads after selection
measurementName: amyloid nucleation score

Consider the following illustrative entries.
# substance, amyloid nucleation score
measured = [
    ("LNTPPQVSMGSEGLSFNMSF", "inactive"),
    ("MRLMEQYFICCVM", 1.06),
    ("LLAGYPLWKPKTCQYMKPWL", 0.125),
    ("SNILAA", "inactive"),
    ("MVSSLRALCPQHFVCSVVCM", 0.885),
]

Exam item: Given "DSDDNVRKNFAS" , respond with its amyloid nucleation score.
Marked response: inactive

Exam item: Given "TTFNRFVYPYGERYLG" , respond with its amyloid nucleation score.
Marked response: inactive

Exam item: Given "EVYLETCRGILFCALDTIFG" , respond with its amyloid nucleation score.
Marked response: -0.264

Exam item: Given "TKTFSDVMLYQCAARCKDLH" , respond with its amyloid nucleation score.
Marked response: inactive

Exam item: Given "FDGTVVSR" , respond with its amyloid nucleation score.
Marked response: inactive

Exam item: Given "WCLNGSMYLLAVSSG" , respond with its amyloid nucleation score.
Marked response: inactive

Exam item: Given "FYVPVYGERV" , respond with its amyloid nucleation score.
Marked response: inactive

Exam item: Given "GDFTSLDVVYYGNDCTLF" , respond with its amyloid nucleation score.
Marked response: inactive

Exam item: Given "ICMSMNMSADPGMPAIMFNY" , respond with its amyloid nucleation score.
Marked response: inactive

Exam item: Given "SEPIWYFRGFFCGLGLIWGW" , respond with its amyloid nucleation score.
Marked response: -0.389

Exam item: Given "GRSLCVVCSGLVWLCW" , respond with its amyloid nucleation score.
Marked response: 2.19

Exam item: Given "TAKMSRVYCCCFSLFDVSLK" , respond with its amyloid nucleation score.
Marked response: inactive

Exam item: Given "TMNAICLNPVS" , respond with its amyloid nucleation score.
Marked response: inactive
